Listing of recorded inhibition in vivo at 0.04 mg/kg by entry.
Test system: Rattus norvegicus
Assay: Neuromuscular block activity in propofol-induced anesthetized Sprague-Dawley rat model assessed as inhibition of twitch by measuring twitch intensity of quadriceps muscle at 0.04 mg/kg, iv administered as bolus dose by TOF watch monitor analysis relative to control
Format: functional
Assay endpoint: inhibition in vivo at 0.04 mg/kg (%)

smiles_entry=Cc1n2cc[n+]1Cc1ccc(cc1)Oc1ccc(cc1)C[n+]1ccn(c1C)Cn1cc[n+](c1C)Cc1ccc(cc1)Oc1ccc(cc1)C[n+]1ccn(c1C)C2.[Cl-].[Cl-].[Cl-].[Cl-] assay_value=63
smiles_entry=Cc1n2cc[n+]1Cc1ccc(cc1)Oc1ccc(cc1)C[n+]1ccn(c1C)CCCCn1cc[n+](c1C)Cc1ccc(cc1)Oc1ccc(cc1)C[n+]1ccn(c1C)CCCC2.[Cl-].[Cl-].[Cl-].[Cl-] assay_value=100
smiles_entry=Cc1n2cc[n+]1Cc1ccc(cc1)C[n+]1ccn(c1C)CCCn1cc[n+](c1C)Cc1ccc(cc1)C[n+]1ccn(c1C)CCC2 assay_value=0
smiles_entry=Cc1n2cc[n+]1Cc1ccc(cc1)Oc1ccc(cc1)C[n+]1ccn(c1C)Cc1cccc(c1)Cn1cc[n+](c1C)Cc1ccc(cc1)Oc1ccc(cc1)C[n+]1ccn(c1C)Cc1cccc(c1)C2.[Cl-].[Cl-].[Cl-].[Cl-] assay_value=54
